Test system: Calu-3
Test: cell viability relative to DMSO; higher = less toxic
Conditions: 72 h; 100 nM
attribute-measured: cell viability (%)
# value in %; strip the unit string

compound | value-units | measured-number
N#CC(C#N)=Cc1ccc(O)c(O)c1 | % | 105
C[C@]12CCC(=O)C(O)=C1CC[C@@H]1[C@@H]2CC[C@]2(C)C(=O)CC[C@@H]12 | % | 91.4
COc1ccc(CN(C(=O)[C@@H](N)Cc2c(C)cc(C(N)=O)cc2C)[C@@H](C)c2ncc(-c3ccccc3)[nH]2)cc1C(=O)O | % | 95.1
CC(C)COc1ccc(CNC(=O)N(Cc2ccc(F)cc2)C2CCN(C)CC2)cc1 | % | 95.1
O=C(NCNC(=O)NC1C(=O)NC(=O)N1CO)NC1C(=O)NC(=O)N1CO (stereo not given) | % | 104
CC1=NN=C(c2ccc(N)cc2)c2cc3c(cc2C1)OCO3 | % | 103
COc1cccc(CCc2ccccc2OCC(CN(C)C)OC(=O)CCC(=O)O)c1 (stereo not given) [sarpogrelate] | % | 96.4
Fc1ccc(-c2nc3n(c2-c2ccncc2)CCS3)cc1 | % | 90.9
COc1cc(OC)cc(C(=O)NNC(=O)Nc2cccc3ccccc23)c1 | % | 93.6
FC(F)(F)C(F)(F)C(F)(F)C(F)(F)C(F)(F)C(F)(F)C(F)(F)C(F)(F)Br | % | 98.1

Which cell viability value belongs to CCc1cnc(N2CCC(c3nc(COc4ccc(-n5cnnn5)cc4)cs3)CC2)nc1 ?
109

Can you check Nc1ncnc(Nc2ccc(Cl)cc2)n1 next?
103

====

Some molecules, each annotated with its measured cell viability.
Test system: Caco-2
Assay: cell viability relative to DMSO; higher = less toxic
Conditions: 72 h; 1 nM
# output: bare number, implied unit %

Here are 8 molecules together with their reported answers.
molecule | measured-number
NC(=O)c1cn([C@@H]2O[C@H](CO)[C@@H](O)[C@H]2O)c2ncnc(N)c2c1=O | 92.3
CCOC(=O)c1c(C)[nH]c2ccc3c(c12)CN1CCc2cc(OC)ccc2C1O3 (centres undefined) | 103
O=C(OC(C(F)(F)F)C(F)(F)F)N1CCN(Cc2cccc(Oc3ccccc3)c2)CC1 | 98.3
COc1ccc(NC(=O)c2ccc(C(=N)N(C)C)cc2)c(C(=O)Nc2ccc(Cl)cn2)c1 | 101
CCOC(=O)[C@@H](C)Oc1ccc(Oc2nc3ccc(Cl)cc3o2)cc1 | 102
N[C@@H](CCC(=O)N[C@@H](CSN=O)C(=O)NCC(=O)O)C(=O)O | 101
Cc1cc(O)c(-c2ccc([C@@H](C)CN)cc2)c2c1[nH]c(=O)c1sccc12 | 98.6
CC(C)[C@](O)(c1ccc2cc(OC(F)F)c(OC(F)F)cc2c1)c1c[nH]nn1 | 93.3

Could you now consider this next molecule?
Data request, read-out cell viability, for COc1ccc(CCNCc2ccc(OCc3ccc(Cl)nc3)c(OC)c2)cc1OC
90.3

====

System: Vero E6
Experiment: cell viability relative to DMSO; higher = less toxic
Details: 72 h; 10 nM
Where a name gives a salt, the structure may show the parent alone.
Readings of cell viability for the listed molecules
// return numeric value only (unit: %, not printed)

molecule | measured-number
NC(N)=Nc1nc(CSCCN/C=N/S(=O)(=O)c2ccc(Br)cc2)cs1 [ebrotidine] | 91.8
COc1cc(C[C@@H]2NCCc3cc(O)c(O)cc32)cc(OC)c1OC [trimethoquinol] | 93.1
CN(C)CCOc1ccc(/C(=C(/CCCl)c2ccccc2)c2ccccc2)cc1 [Toremifene citrate] | 99.3

// query cell viability value for entry COc1cccc(OCCCN)c1-c1cc(Nc2cnc(C#N)cn2)n[nH]1
101

====

# cell viability per record follows
System: HepG2
Test: cell viability relative to DMSO; higher = less toxic
Details: 72 h; 1 nM
Answer in %, number only, no unit symbol.

Here's what some known entries look like.
compound | study-system | cell viability / %
CO[C@H]1O[C@@H]2O[C@@]3(C)CC[C@H]4[C@H](C)CC[C@@H]([C@H]1C)[C@@]24OO3 | HepG2 | 97.6
CCCc1c(OCCCCc2nnn[nH]2)ccc(C(C)=O)c1O | HepG2 | 95.6
CCN(CC)CCN(Cc1ccc(-c2ccc(C(F)(F)F)cc2)cc1)C(=O)Cn1c(SCc2ccc(F)cc2)nc(=O)c2c1CCC2 | HepG2 | 91.8
COc1cc(OC)cc(C(=O)NNC(=O)Nc2cccc3ccccc23)c1 | HepG2 | 100
COP(=O)(OC)OC(c1ccc(Cl)cc1)P(=O)(OC)OC (stereo not given) [mifobate] | HepG2 | 107

Record lookup: for HepG2, what cell viability belongs to O=C(OC(C(F)(F)F)C(F)(F)F)N1CCN(Cc2cccc(Oc3ccccc3)c2)CC1 ?
100

Check O=[N+]([O-])c1cn2c(n1)OC[C@@H](OCc1ccc(-c3ccc(OC(F)(F)F)cc3)nc1)C2 too.
92.9

Can you handle CNC(=O)[C@@H](c1ccccc1)N1CCc2cc(OC)c(OC)cc2[C@@H]1CCc1ccc(C(F)(F)F)cc1 next?
102

====

Test system: Calu-3
Assay: cell viability relative to DMSO; higher = less toxic
Conditions: 72 h; 10 nM
attribute-measured: cell viability (%)
All answers are understood in %, so give the number only.

# example entries with known answers
molecule | cell viability / %
O=C(NCNC(=O)NC1C(=O)NC(=O)N1CO)NC1C(=O)NC(=O)N1CO (stereo not drawn) [imidurea] | 98.1
COc1ccc(Cl)c(Nc2nc3ccccc3nc2NS(=O)(=O)c2cccc(NC(=O)C(C)(C)N)c2)c1 [pilaralisib] | 86
C[C@H](NC(=O)Cc1cc(F)cc(F)c1)C(=O)N[C@H](C(=O)OC(C)(C)C)c1ccccc1 [DAPT] | 100
CCCNCCc1ccc(NS(=O)(=O)c2ccc(OC(F)(F)F)cc2)cc1 | 108
Clc1ccc2c(NCCNc3ccnc4cc(Cl)ccc34)ccnc2c1 [NSC-5844] | 98.3
N[C@@H](Cn1oc(=O)[nH]c1=O)C(=O)O [L-quisqualic-acid] | 96.2

Which cell viability reading was recorded for the molecule COc1cc(C[C@@H](CO[C@@H]2O[C@H](CO)[C@@H](O)[C@H](O)[C@H]2O)[C@H](CO[C@@H]2O[C@H](CO)[C@@H](O)[C@H](O)[C@H]2O)Cc2ccc(O)c(OC)c2)ccc1O [secoisolariciresinol-diglucoside] ?
92.9

Entry Cc1ncc(-c2ccnc(Nc3ccc(S(C)(=O)=O)cc3)n2)n1C(C)C [AZD5438] please
97.1

====

Tested on: HepG2
Assay: cell viability relative to DMSO; higher = less toxic
Settings: 72 h; 10000 nM
Overview of recorded cell viability for various compounds
Give your result in % as a bare value.

Example entries begin here.
compound | value-units | cell viability
COC(=O)C1=C(C)NC(C)=C(C(=O)OCCN2CCN(C(c3ccccc3)c3ccccc3)CC2)C1c1cccc([N+](=O)[O-])c1 (stereo not given) [manidipine] | % | 81.4
Cc1ccc2c(c1)C(=O)[C@]1(O)CCN(c3ccccc3)C1=N2 (racemic) [blebbistatin-(+/-)] | % | 96
CN1C(=O)C(N2CCCCC2)S/C1=C\C(=O)O (stereo not given) [ozolinone] | % | 105

Recorded cell viability of O=[N+]([O-])c1cn2c(n1)OC[C@@H](OCc1ccc(-c3ccc(OC(F)(F)F)cc3)nc1)C2 [TBA-354] , please.
105

====

Test system: Vero E6
Experiment: cell viability relative to DMSO; higher = less toxic
Settings: 72 h; 100 nM
The following compounds are shown together with reported cell viability values.
// return numeric value only (unit: %, not printed)

compound | attribute-measured | measured-number
CNC(=O)[C@@H](c1ccccc1)N1CCc2cc(OC)c(OC)cc2[C@@H]1CCc1ccc(C(F)(F)F)cc1 [almorexant] | cell viability | 95.4

cell viability for Cc1ccc(C23CNCC2C3)cc1 (stereo unspecified) [bicifadine] ?
98.8

What would you report for COc1cc2c(NC3CCN(C4CCCCC4)CC3)nc(N3CCCN(C(C)C)CC3)nc2cc1OCCCN1CCCCC1 [UNC0646] ?
94.3

Another compound to look at: Clc1ccc2c(NCCNc3ccnc4cc(Cl)ccc34)ccnc2c1 [NSC-5844]
96.2

Subsequent entry: CN1C(=O)OC(C)(C)C1=O [trimethadione]
101

Further, for C[C@H](CS)C(=O)N1CCC[C@H]1C(=O)O [captopril] ?
107

Also check O=C(CNC(=O)c1cccc(C(F)(F)F)c1)N[C@@H]1CCN(Cc2ccc(Cl)cc2)C1 [teijin-compound-1]
100

What do you get for CC(C)(C)c1ccc(/C=C/C(=O)Nc2ccc3c(c2)OCCO3)cc1 [AMG-9810] ?
96

Param item: CCC(=O)OCC(=O)[C@@]1(OC(=O)CC)[C@H](C)C[C@H]2[C@H]3[C@H]([C@@H](O)C[C@@]21C)[C@@]1(C)C=CC(=O)C=C1C[C@H]3Cl [alclometasone-dipropionate]
104

Try this compound next: NC(=O)c1cnc(N[C@@H]2CCCC[C@@H]2N)nc1Nc1cccc(-n2nccn2)c1
91.1

Try this compound too: CN(NC(=O)CC(=O)NN(C)C(=S)c1ccccc1)C(=S)c1ccccc1 [elesclomol]
69.1

Now consider COC(=O)c1sccc1S(=O)(=O)Nc1ccc(Nc2ccccc2)cc1OC [GSK0660] and answer again.
94.8

// query: FC(F)(F)C(F)(F)C(F)(F)C(F)(F)C(F)(F)C(F)(F)C(F)(F)C(F)(F)Br [perflubron]
102

Would you mind doing OB1OCc2cc(Cl)ccc21 [AN2718] as well?
94.7

Same again, this time with O=C(NNC(=O)c1ccc(CNS(=O)(=O)c2ccc(F)c(Cl)c2)cc1)c1ccccc1 [TCN201]
98.4

Next: CCc1cn([C@H]2C[C@H](O)[C@@H](CO)O2)c(=O)[nH]c1=O [edoxudine]
98

# repeat for CCC(C/C=C/c1ccccc1)(c1ccccc1)N(C)CC1CC1 (stereo unspecified) [igmesine]
94.2

Moving on to the next compound: C[C@]12CC[C@@H]3c4ccc(O)cc4C[C@@H](CCCCCCCCC[S+]([O-])CCCC(F)(F)C(F)(F)F)[C@H]3[C@@H]1CC[C@@H]2O (stereo partly specified) [fulvestrant]
100

// same read-out, input: COc1ccc(NC(=O)c2ccc(C(=N)N(C)C)cc2)c(C(=O)Nc2ccc(Cl)cn2)c1 [betrixaban]
97.3

What about this compound? C[C@]12CCC(=O)C(O)=C1CC[C@@H]1[C@@H]2CC[C@]2(C)C(=O)CC[C@@H]12 [formestane]
86.7

Now consider C[C@H](NC(=O)Cc1cc(F)cc(F)c1)C(=O)N[C@H](C(=O)OC(C)(C)C)c1ccccc1 [DAPT] and answer again.
103

// same read-out, input: C#Cc1cccc(Nc2ncnc3cc(OC)c(OCCCCCCC(=O)NO)cc23)c1 [CUDC-101]
94.6

And what about the compound COC(=O)C1=C(C)NC(C)=C(C(=O)OCC(C)C)C1c1ccccc1[N+](=O)[O-] (stereo unspecified) [nisoldipine] ?
102
